All figures here come from PubChem BioAssay (EPA / NIEHS).

Assay: BSK_hDFCGF_Proliferation: Cell Proliferation Assessment in the BioMAP Diversity Plus: hDFCGF Assay (AID 2283059);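 also: curves fitted for both rise and fall of signal versus DMSO baseline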
Settings: primary human foreskin fibroblasts
The source made the active and inactive calls. The calls were made as follows: active = hit-call score of the fitted dose curve at least 0.9, where 1 is the maximum; inactive = score below 0.9.
Your response should consist of one outcome taken from active, inactive

molecule=C[C@](N)(Cc1ccc(O)c(O)c1)C(=O)O group_label=active

What did this assay record as the result for CCOC(=O)CC(CC(=O)OCC)(OC(C)=O)C(=O)OCC ? inactive

====

Read-out: Monokine induced gamma interferon (MIG), CXCL9 (gene 4283)
Assay: BSK_3C_MIG: BioMAP Diversity Plus: 3C Assay for Monokine induced gamma interferon (MIG) Biomarker Activity (AID 2283021)
Settings: primary human endothelial cells (HUVEC); actives raise or lower the signal
Activity calls are given as the source filed them. How the source made its calls: active means hit-call score of the fitted dose curve at least 0.9, where 1 is the maximum; inactive means score below 0.9.
Your response should consist of one outcome taken from active, inactive

Answered cases to consult:
compound=CCOCCOCCOCCO group_label=inactive
compound=COC(=O)CC(=O)OC group_label=inactive
compound=CC(C)(O)c1coc(S(=O)(=O)NC(=O)Nc2c3c(cc4c2CCC4)CCC3)c1 group_label=inactive
compound=COC(=O)c1c(Cl)c(Cl)c(C(=O)OC)c(Cl)c1Cl group_label=inactive
compound=CCCCCCc1ccc(O)cc1O group_label=active

What did this assay record as the result for CCOC(=O)c1ccc(C2CCC(NC[C@H](O)COc3ccc(O)c(NS(C)(=O)=O)c3)CC2)cc1 (stereo partly drawn) ? inactive

What did this assay record as the result for CCCCCCCCCCCCCCCO ? inactive

What did this assay record as the result for O=c1[nH]c2ccc(S(=O)CCN3CCC(Cc4ccc(F)cc4)CC3)cc2o1 (stereo not drawn) ? inactive

What did this assay record as the result for CC1=CC(=O)CC(C)(C)C1 ? inactive

What did this assay record as the result for Nc1nc2ncc(CNc3ccc(C(=O)N[C@@H](CCC(=O)O)C(=O)O)cc3)nc2c(=O)[nH]1 ? inactive

What did this assay record as the result for O=C(O)CC(O)C(=O)O (stereo not drawn) ? inactive

What did this assay record as the result for Cn1cnc([N+](=O)[O-])c1Sc1ncnc2nc[nH]c12 ? inactive

What did this assay record as the result for O=C1CCC(N2C(=O)c3ccccc3C2=O)C(=O)N1 (stereo not drawn) ? inactive

====

Molecular target: Myc proto-oncogene protein (Homo sapiens)
Assay: ATG_Myc_CIS: Attagene CIS-FACTORIAL HepG2 Assay for human Myelocytomatosis (Myc) Proto-Oncogene Transcription Factor (AID 2282990)
Settings: HepG2, Attagene cis-reporter transcription factor activity; actives raise or lower the signal
Active and inactive are the calls of the source. The calls were made as follows: active = hit-call score of the fitted dose curve at least 0.9, where 1 is the maximum; inactive = score below 0.9.
Your response should consist of one outcome taken from T (active), F (inactive)

Answered cases to consult:
compound=C1N2CN3CN1CN(C2)C3 group_label=F
compound=O=C(O)CCN(C1(C(=O)NO)CCCC1)S(=O)(=O)c1ccc(Oc2ccc(F)cc2)cc1 group_label=F
compound=Cn1cnc([N+](=O)[O-])c1Sc1ncnc2nc[nH]c12 group_label=F

What did this assay record as the result for CCOC(=O)CC(CC(=O)OCC)(OC(C)=O)C(=O)OCC ? F

What did this assay record as the result for Cc1ccc(N)cc1O ? F

What did this assay record as the result for CCCN(C1CCN(C(=O)C2CCNCC2)CC1)[C@@H]1CCc2ccc(OC)cc2C1 ? T

What did this assay record as the result for O=P(OC(CCl)CCl)(OC(CCl)CCl)OC(CCl)CCl ? T

What did this assay record as the result for CC(C)c1cccc(C(C)C)c1N1C(=O)c2ccc(O)cc2C1=O ? T

What did this assay record as the result for O=C(NS(=O)(=O)/C=C/c1ccccc1)c1ccc(F)cc1Cl ? F

What did this assay record as the result for COc1ccc(-n2nc(C(F)F)cc2-c2ccc(S(C)=O)cc2)cc1 (configuration not stated) ? F

What did this assay record as the result for CC(C)=CCC/C(C)=C\CO ? F

What did this assay record as the result for O=C(O)c1cc(N=Nc2ccc(S(=O)(=O)Nc3ccccn3)cc2)ccc1O ? F
